Biological target: XIAP BIR-3 (Homo sapiens, UniProt P98170)
Construct: 40 nM of the respective IAP BIR3
Sequence (P98170 241-356 limits assumed): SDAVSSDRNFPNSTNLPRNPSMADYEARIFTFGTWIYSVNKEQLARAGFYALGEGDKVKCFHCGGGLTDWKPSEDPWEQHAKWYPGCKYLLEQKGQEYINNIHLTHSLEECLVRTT
Experiment: Fluorescence polarization binding to XIAP BIR-3 with labeled peptide AbuRPF-K(5-Fam)-NH2
Details: XIAP BIR-3, 40 nM BIR3, 5 nM labeled peptide, 15 min RT, pH 7.5; read-out: XIAP, nM (binding affinity KD, as range)
Result type: Kd

Query CN[C@@H](C)C(=O)N[C@H](C(=O)N1CC[C@@H]2[C@H]1[C@@H](C(=O)N[C@H](C)C1CCCCC1)CN2S(C)(=O)=O)C(C)(C)C yields Kd of 1000 to 10000 nM

# molecule CN[C@@H](C)C(=O)N[C@H](C(=O)N1CC[C@@H]2[C@H]1[C@@H](C(=O)N[C@H](C)c1ccccc1)CN2S(C)(=O)=O)C1CCCCC1 ; its Kd = 100 to 1000 nM

Kd reading for CN[C@@H](C)C(=O)N[C@H](C(=O)N1CC[C@@H]2[C@H]1[C@@H](C(=O)N[C@@H](Cc1ccccc1)C(=O)OC)CN2S(C)(=O)=O)C1CCCCC1 : 100 to 1000 nM

# Kd of CN[C@@H](C)C(=O)N[C@H](C(=O)N1CC[C@@H]2[C@H]1[C@@H](C(=O)Nc1cccc3ccccc13)CN2S(C)(=O)=O)C1CCCCC1 = < 100 nM
